Parameter: %Inh. Scope: all listed entries.
System: TSSK3
experimental_conditions: concentration: 1 μM, replicates: in singlicate; n = 1;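 note: KINOMEscan kinase panel screen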
Report the figure along with its unit, number first.

In the examples that follow, each entry is paired with its recorded %Inh.
CC(=O)N1CCN(c2ccc(Nc3nccc(-c4sc(C(C)C)nc4-c4cccc(NS(=O)(=O)c5cccc(Cl)c5)c4)n3)cn2)CC1    4%
O=C(O)C(F)(F)F.O=C(O)C(F)(F)F.O=c1[nH]ccc2nc(N[C@@H]3CCCNC3)nc(Nc3ccc(S(=O)(=O)N4CCOCC4)cc3)c12    99.7%
Cl.Cl.NCC(NCc1ccc(-c2ccnc3[nH]ccc23)s1)c1ccccc1 (centres unmarked)    16%

Qu. Using known records, supply %Inh for "COC(=O)Nc1nc2ccc(Oc3ccc(NC(=O)Nc4cc(C(F)(F)F)ccc4F)cc3)cc2n1C.Cl"
Ans. 0%

Qu. Please list %Inh recorded for the compound "Nc1ncc(-c2cccnc2)c2scc(-c3ccc4c(c3)CCN4C(=O)Cc3ccccc3)c12"
Ans. 22%

Qu. Look up and report measured %Inh for this entry: "Cl.NC(=O)c1cccc(Nc2nccc(Nc3ccc(Oc4c(Cl)cccc4Cl)c(Cl)c3)n2)c1"
Ans. 88%

Qu. Read the entry "Cc1occc1-c1ncc(OC[C@@H](N)Cc2c[nH]c3ccccc23)cc1-c1ccc2[nH]nc(C)c2c1.O=C(O)C(F)(F)F" and write its reported %Inh.
Ans. 13%

Qu. Give %Inh for the following compound: "COc1cc(Nc2ncc3c(C)nc(-c4cc5ccccc5[nH]4)n3n2)cc(OC)c1OC"
Ans. 0%

Qu. Using the record for "CC(C)c1nc(-c2cccc(NS(=O)(=O)c3c(F)cccc3F)c2F)c(-c2ccnc(Nc3ccc(N4CCOCC4)nc3)n2)s1" , state its measured %Inh.
Ans. 34%

Qu. Report %Inh, nothing else, for this compound: "CCCCc1nn2ncccc2c1-c1ccnc(Nc2ccc(N3CCN(C)CC3)cc2)n1"
Ans. 7%

Qu. Tell me %Inh reported for "O=C(Nc1cccc(-c2nn3ncccc3c2-c2ccnc(Nc3ccccc3)n2)c1)c1c(F)cccc1F"
Ans. 18%

Qu. Please look at this compound and report its %Inh: "CN(C)S(=O)(=O)c1cc(-c2ccc3nccc(-c4cccc(S(N)(=O)=O)c4)c3c2)cnc1N"
Ans. 18%

----------
Reported %Inh values follow for various compounds
Test system: YES
Construct: gene YES1
experimental_conditions: concentration: 1 μM, replicates: in singlicate; n = 1
The reply should be a number in %, with the unit left off.

O=C(Nc1cccc(-c2nn3ccccc3c2-c2ccnc(Nc3cccc(C(F)(F)F)c3)n2)c1)c1c(F)cccc1F    95.2
Cl.Cl.NCC(C(=O)Nc1cc(Br)c(-c2ccnc3[nH]ccc23)s1)c1ccccc1 (stereo not drawn)    7

Let us move to another entry and its %Inh.
Qu. In one line, give reported %Inh of the entry "Cc1ccc(S(=O)(=O)Nc2ccc(Nc3nccc(Nc4cccc5[nH]ncc45)n3)cc2)cc1" .
Ans. 30

----------
Test system: FGFR1
experimental_conditions: concentration: 1 μM, replicates: in singlicate; n = 1
Each entry below lists one item and its recorded %Inh value.
Give the quantity in %, number only.

Illustrative cases are given below, each with its answer.
Cn1cc(-c2ccc3c(c2)CCN3C(=O)Cc2cccc(F)c2)c2c(N)ncnc21    0
COc1ccc(-c2coc3ccc(-c4nnc(SCc5ccc(OC)c(C(F)(F)F)c5)o4)cc23)cc1    0
c1ccc(Oc2ccc(Nc3ccnc4cc(-c5ccc(CNCCN6CCOCC6)o5)ccc34)cc2)nc1    0
COCCOCCOc1cc2ncc3c4ccc(C#N)cc4[nH]c3c2cc1OC    0
COc1cccc(C2=C(Nc3ccc(Cl)c(C(=O)O)c3)C(=O)NC2=O)c1    8
COC(=O)Nc1nc2cc(Oc3ccc(NC(=O)Nc4cc(C(F)(F)F)ccc4F)cn3)ccc2[nH]1.Cl.Cl    7
COc1cc(Nc2nccc(N3CCC(NC(=O)c4cc5ccccc5s4)C3)n2)cc(OC)c1OC (centres unmarked)    0

Let us examine a further case.
Qu. State, in one line, measured %Inh of Cl.Cl.NCC(NCc1ccc(-c2ccnc3[nH]ccc23)s1)c1ccccc1 (centres unmarked)
Ans. 4
